Listed here are molecules together with their documented IC50.
biological target: UniProt Q9JIM1; test: ENT1 adenosine uptake inhibition ([3H]-adenosine transport activity); conditions: stable cells expressing mouse ENT-1; [2,8-3H]-adenosine 6 nM, 20 min
Sequence (Q9JIM1 whole entry): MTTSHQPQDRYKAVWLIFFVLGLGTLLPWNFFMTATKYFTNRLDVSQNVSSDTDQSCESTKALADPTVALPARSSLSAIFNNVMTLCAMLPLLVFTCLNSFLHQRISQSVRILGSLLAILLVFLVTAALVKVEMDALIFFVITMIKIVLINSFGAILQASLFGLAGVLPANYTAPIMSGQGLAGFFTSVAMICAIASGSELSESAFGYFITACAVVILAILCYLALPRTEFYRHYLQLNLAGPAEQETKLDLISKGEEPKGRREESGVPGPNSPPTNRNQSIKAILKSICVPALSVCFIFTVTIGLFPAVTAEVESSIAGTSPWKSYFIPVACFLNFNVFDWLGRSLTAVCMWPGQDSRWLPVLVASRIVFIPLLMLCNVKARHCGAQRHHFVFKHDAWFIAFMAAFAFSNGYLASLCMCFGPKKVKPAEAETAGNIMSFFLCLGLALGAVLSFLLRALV
// return numeric value only (unit: µM, not printed)

Before answering, review these 3 worked examples.
{"columns": ["STRUCTURE", "SUBJECT_OF_TEST", "TEST_VALUE"],
 "data": [
  ["COc1cc(N2C(=O)C(C)(C)c3ccc(-c4cnc(C)nc4)cc32)cnc1C1CC1", "UniProt Q9JIM1", 0.139],
  ["Cc1ncc(-c2ccc3c(c2)N(c2cnc(OC4COC4)nc2)C(=O)C3(C)C)cn1", "UniProt Q9JIM1", 0.823],
  ["Cc1ncc(-c2ccc3c(c2)N(c2ccc(OCC(F)(F)F)nc2)C(=O)C3(C)C)cn1", "UniProt Q9JIM1", 0.811]
]}

Output IC50 of Cc1ncc(-c2ccc3c(c2)N(c2cnc4c(c2)OCCN4)C(=O)C3(C)C)cn1
0.951

Output IC50 of Cc1ncc(-c2ccc3c(c2)N(c2ccc(O)nn2)C(=O)C3(C)C)cn1
0.615

Output IC50 of Cc1ncc(-c2ccc3c(c2)N(c2ccc(OC(F)(F)F)cn2)C(=O)C3(C)C)cn1
0.118

Output IC50 of COc1ncc(N2C(=O)C(C)(C)c3ccc(-c4cnc(C)nc4)cc32)cn1
0.843

Output IC50 of Cc1ncc(-c2ccc3c(c2)N(c2ccc4onc(C)c4c2)C(=O)C3(C)C)cn1
0.0509

Output IC50 of COc1cc(N2C(=O)C(C)(C)c3ccc(-c4cnc(C)nc4)cc32)cnc1C
0.242

Output IC50 of COc1cncc(N2C(=O)C3(CCC3)c3ccc(-c4cnc(C)nc4)cc32)c1
0.785

Output IC50 of COc1cc(N2C(=O)C(C)(C)c3ccc(-c4cnc(C)nc4)cc32)nc(OC)n1
0.11

Output IC50 of COc1cncc(N2C(=O)C(C)(C)c3ccc(-c4cnc(C)nc4)cc32)n1
0.073

Output IC50 of CCOc1cncc(N2C(=O)C(C)(C)c3ccc(-c4cnc(C)nc4)cc32)c1
0.0643

Output IC50 of COc1cnc(N2C(=O)C(C)(C)c3ccc(-c4cnc(C)nc4)cc32)cn1
0.272

Output IC50 of COc1cncc(N2C(=O)C(C)(C)c3ccc(-c4cnc(C)nc4)cc32)c1
0.438

Output IC50 of COc1cccc(N2C(=O)C(C)(C)c3ccc(-c4cnc(C)nc4)cc32)c1
0.289

Output IC50 of COc1ccc(N2C(=O)C3(CCC3)c3ccc(-c4cnc(C)nc4)cc32)nn1
0.13

Output IC50 of Cc1ncc(-c2ccc3c(c2)N(c2cncc(OC(C)C)c2)C(=O)C3(C)C)cn1
0.183

Output IC50 of COc1ccc(N2C(=O)C(C)(C)c3ccc(-c4cnc(C)nc4)cc32)nn1
0.0348

Output IC50 of COc1cc(N2C(=O)C(C)(C)c3ccc(-c4cnc(C)nc4)cc32)cnc1Cl
0.154
